Target: UniProtKB P11214
Sequence (P11214 whole entry): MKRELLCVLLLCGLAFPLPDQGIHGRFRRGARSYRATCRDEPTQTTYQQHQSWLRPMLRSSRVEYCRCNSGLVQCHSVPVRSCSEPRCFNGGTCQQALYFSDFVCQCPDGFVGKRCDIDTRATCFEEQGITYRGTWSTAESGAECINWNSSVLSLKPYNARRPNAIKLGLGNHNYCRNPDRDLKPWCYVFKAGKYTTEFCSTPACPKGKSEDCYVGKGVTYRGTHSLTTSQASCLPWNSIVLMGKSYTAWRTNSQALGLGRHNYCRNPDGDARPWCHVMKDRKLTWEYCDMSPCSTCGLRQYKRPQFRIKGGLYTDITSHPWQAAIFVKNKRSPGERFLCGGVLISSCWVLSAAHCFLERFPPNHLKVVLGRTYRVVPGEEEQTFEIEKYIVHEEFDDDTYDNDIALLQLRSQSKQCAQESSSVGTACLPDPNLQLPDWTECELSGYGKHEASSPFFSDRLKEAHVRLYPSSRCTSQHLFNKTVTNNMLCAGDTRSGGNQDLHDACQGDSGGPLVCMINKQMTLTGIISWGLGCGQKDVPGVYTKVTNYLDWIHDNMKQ
measure-name: IC50 (nM)
Record the value in nM, omitting the unit from your answer.

Q: For the record CC[C@@H](Oc1nc(Oc2cc(C)cc(-c3cccc(CN)c3)c2)c(F)cc1F)C(=O)O , what value of IC50 is listed for UniProtKB P11214?
A: 910

* * *

Assay: Oral bioavailability in rat at 2 mg/kg
Assay type: ADME, organism-based
Conditions: in vivo
bioavailability reference
Record the value in %, omitting the unit from your answer.

In [3]: df
Out[3]:
                            compound_string     measure_name  number
0  CC[C@@H](Oc1nc(Oc2cccc(-c3cccc(CN)c3)c2)c(F)cc1F)C(=O)O  bioavailability      55

Q: Looking for the measured bioavailability of CC[C@@H](Oc1nc(Oc2cc(C)cc(-c3cccc(CN)c3)c2)c(F)cc1F)C(=O)O , can you help?
A: 30
